All values here come from paper PMC8954640.

Experiment: Measurement of fluorescent properties in MeOH
Format: physicochemical
Conditions: 300 μg/mL in MeOH
Listed here: items and their measured ε.

Some compounds with recorded ε:
CCCCCC1OC(OC)c2c3c(cc(O)c2C1OC)CC(OC)C(C)(C)O3 (racemic) [(±)-4, (±)-Aspergiletal B]    208307.41 M^–1cm^–1
CCCCCC1OC(OC)c2c3c(cc(O)c2C1OC)C(O)C(O)C(C)(C)O3 (racemic) [(±)-6, (±)-Aspergiletal D]    127827.28 M^–1cm^–1
CCCCCC1OC(OC)c2c3c(cc(O)c2C1OC)CC(O)C(C)(C)O3 (racemic) [(±)-5, (±)-Aspergiletal C]    106186.60 M^–1cm^–1

Consider the record given below.
ε lookup needed for CCCCCC1OC(OC)c2c3c(cc(O)c2C1OC)C=C(OC)C(C)(C)O3 (racemic) [(±)-3, (±)-Aspergiletal A] , thanks.
61279.01 M^–1cm^–1

###

Experiment: Measurement of fluorescent properties in MeOH
Format: physicochemical
Details: 300 μg/mL in MeOH
readout: φ F

Please review the entries below; each comes with its answer.
CCCCCC1OC(OC)c2c3c(cc(O)c2C1OC)C(O)C(O)C(C)(C)O3 (racemic) [(±)-6, (±)-Aspergiletal D]    0.0416
CCCCCC1OC(OC)c2c3c(cc(O)c2C1OC)CC(OC)C(C)(C)O3 (racemic) [(±)-4, (±)-Aspergiletal B]    0.0649
CCCCCC1OC(OC)c2c3c(cc(O)c2C1OC)CC(O)C(C)(C)O3 (racemic) [(±)-5, (±)-Aspergiletal C]    0.0482

# get_value(readout='φ F', item= CCCCCC1OC(OC)c2c3c(cc(O)c2C1OC)C=C(OC)C(C)(C)O3 (racemic) [(±)-3, (±)-Aspergiletal A] )
0.0048

###

In this section, each of the compounds is paired with its reported λ abs.
Test: Measurement of fluorescent properties in MeOH
Type: physicochemical
Conditions: 300 μg/mL in MeOH
Numbers only; they are read as nm.

As a guide, the following entries are already answered.
CCCCCC1OC(OC)c2c3c(cc(O)c2C1OC)CC(O)C(C)(C)O3 (racemic) [(±)-5, (±)-Aspergiletal C]    203
CCCCCC1OC(OC)c2c3c(cc(O)c2C1OC)CC(OC)C(C)(C)O3 (racemic) [(±)-4, (±)-Aspergiletal B]    225
CCCCCC1OC(OC)c2c3c(cc(O)c2C1OC)C(O)C(O)C(C)(C)O3 (racemic) [(±)-6, (±)-Aspergiletal D]    225

Now, please, on to the next compound.
For the compound shown here, CCCCCC1OC(OC)c2c3c(cc(O)c2C1OC)C=C(OC)C(C)(C)O3 (racemic) [(±)-3, (±)-Aspergiletal A] , give the reported λ abs.
206

###

Examples of compounds with documented λ em follow.
Test: Measurement of fluorescent properties in MeOH
Type: physicochemical
Conditions: 300 μg/mL in MeOH; λexc = 365 nm
Kindly answer with a numeric value in nm, unit omitted.

CCCCCC1OC(OC)c2c3c(cc(O)c2C1OC)C(O)C(O)C(C)(C)O3 (racemic) [(±)-6, (±)-Aspergiletal D]    424
CCCCCC1OC(OC)c2c3c(cc(O)c2C1OC)CC(OC)C(C)(C)O3 (racemic) [(±)-4, (±)-Aspergiletal B]    428
CCCCCC1OC(OC)c2c3c(cc(O)c2C1OC)CC(O)C(C)(C)O3 (racemic) [(±)-5, (±)-Aspergiletal C]    432

Lab note: next compound to report on.
So what does the record say about λ em for CCCCCC1OC(OC)c2c3c(cc(O)c2C1OC)C=C(OC)C(C)(C)O3 (racemic) [(±)-3, (±)-Aspergiletal A] ?
472
